# protocol_text: protein stability index of a GFP-peptide fusion (GPS, HEK-293T) (PSI 1-6); higher = more stable;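 also: 24-mer peptide tiles fused after GFP, lentivirally expressed, FACS-sorted into six equal bins by GFP/DsRed ratio, decoded by Illumina sequencing, PSI is the read-weighted mean bin number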
# experimental_setup: treatment: DMSO; c terminus: a fixed tail appended
Listing: protein stability index of selected sequences
Would you mind answering with just the numeric figure?

What the record says about GPAPPPLPPALVPAGGLAPGGGRG [WAS] : protein stability index is 5.09

What the record says about DEPVCGRPLGIRAGPNGTLFVADA [APMAP] : protein stability index is 3.83

What the record says about SSNLGQHQRIHTGEKPFECNECGK [ZNF232] : protein stability index is 4.78

====

# protocol_text: protein stability index of a GFP-peptide fusion (GPS, HEK-293T) (PSI 1-6); higher = more stable
# experimental_setup: treatment: DMSO; c terminus: a fixed tail appended
Listing: protein stability index of selected sequences

What the record says about ESRLKRSNPLAREIFRRHFRQLCY [ZSCAN9] : protein stability index is 2.15

What the record says about FYTCASHVTVVILFFVPCIFLYAR [OR4A15] : protein stability index is 3.13

What the record says about SGYDGTFLFQKPGDKYEHHSYMGM [POMT2] : protein stability index is 2.68

What the record says about SARMSAGLPGPEAARSGDAAANKL [PLEKHN1] : protein stability index is 5.22

What the record says about MCDAFVGTWKLVSSENFDDYMKEV [FABP4] : protein stability index is 2.55

====

# protocol_text: protein stability index of a GFP-peptide fusion (GPS, HEK-293T) (PSI 1-6); higher = more stable
# experimental_setup: treatment: MLN4924 1 uM, 8 h; c terminus: a fixed tail appended
Listing: protein stability index of selected sequences

{"residue_string": "LVNPTCQVLVKDFTFEGFSRLRFL [ZER1]", "protein stability index": 2.27}
{"residue_string": "ESRLKRSNPLAREIFRRHFRQLCY [ZSCAN9]", "protein stability index": 2.34}
{"residue_string": "ALWCSGHLNGHAMCQTKHSPWADG [ADAMTS4]", "protein stability index": 2.27}
{"residue_string": "PSPAAVPRPPSNPPARGTLKTSNL [TRAF3IP2]", "protein stability index": 4.94}
{"residue_string": "LASDKTSAGNAPLNEEINIASSDS [C18orf25]", "protein stability index": 5.46}

// moving on: another record for protein stability index
What the record says about GDRMFYRDWWNSTSFSNYYRTWNV [SOAT2] : protein stability index is 2.28

====

Listing: protein stability index of selected sequences
# protocol_text: protein stability index of a GFP-peptide fusion (GPS, HEK-293T) (PSI 1-6); higher = more stable
# experimental_setup: treatment: MLN4924 1 uM, 8 h; c terminus: a fixed tail appended
Would you mind answering with just the numeric figure?

The examples below pair each entry with its known result.
{"residue_string": "RMIPGQPPASARRLSVPRDSACDE [IRX6]", "property_measured": "protein stability index", "endpoint_result": 5.29}
{"residue_string": "EQHVHNEKSVLKEVSHPFLIRLFW [PRKX]", "property_measured": "protein stability index", "endpoint_result": 2.26}
{"residue_string": "TEGVTQLKLTVVEDVTVGRRQAVA [ZFYVE21]", "property_measured": "protein stability index", "endpoint_result": 4.12}
{"residue_string": "ANYLEKVRQLERENAELESRIQEW [KRT36]", "property_measured": "protein stability index", "endpoint_result": 4.46}
{"residue_string": "YHCPGSPDHQVPYGHDYPRAAYQQ [TRAF3IP2]", "property_measured": "protein stability index", "endpoint_result": 3.5}
{"residue_string": "HQRTHTGEKPFTCHECGKKFSQNS [ZNF75A]", "property_measured": "protein stability index", "endpoint_result": 3.47}

What the record says about QEEMAEDPLTYKSRLMVVVKMDSS [RHOBTB2] : protein stability index is 3.49

What the record says about AKHMGLEPPPEVWQVLKTHPGDPR [POLD4] : protein stability index is 3.93

====

# protocol_text: protein stability index of a GFP-peptide fusion (GPS, HEK-293T) (PSI 1-6); higher = more stable
# experimental_setup: treatment: DMSO; c terminus: a fixed tail appended
Assign true whenever protein stability index does not fall below 4; assign false whenever it does.

A selection of reference data follows.
{"residue_string": "GSFHGPGHISLRRENSSDSPKELK [DLC1]", "cat": "true"}
{"residue_string": "ASTSLPTKPTQGASSASEPQGLFV [CLPTM1]", "cat": "true"}
{"residue_string": "ALLFIPRRAPFDLFENKKKKNNIK [HSP90AB1]", "cat": "false"}

// query Say whether TMLIVHHRTHTGERPYGCDECEKA [ZNF649] shows protein stability index of 4 or more.
// result false

// query Say whether REVRRAQARLLNPSATRAKPGPQD [NOP53] shows protein stability index of 4 or more.
// result true

// query Say whether SGDAAAQPAFTGIKGKEGSALTEG [EPB41L3] shows protein stability index of 4 or more.
// result true

// query Say whether FSKASSSLQLVFGIELMEVDPIGH [MAGEA3] shows protein stability index of 4 or more.
// result false

====

Listing: protein stability index of selected sequences
# protocol_text: protein stability index of a GFP-peptide fusion (GPS, HEK-293T) (PSI 1-6); higher = more stable
# experimental_setup: treatment: DMSO; c terminus: a fixed tail appended
Would you mind answering with just the numeric figure?

The examples below pair each entry with its known result.
{"residue_string": "SLQQMQELSNILNLSYKQVKTWFQ [NANOGP8]", "property_measured": "protein stability index", "endpoint_result": 2.27}
{"residue_string": "SKRLAVPCKLEKMRILAHGELVLA [TLE6]", "property_measured": "protein stability index", "endpoint_result": 2.26}
{"residue_string": "SVTLEDVTPKKSPPPKTNLTPGQS [FAN1]", "property_measured": "protein stability index", "endpoint_result": 5.11}

What the record says about VMAYDRYMAICKPLHELITMNRRV [OR4A15] : protein stability index is 2.25

What the record says about SKIPHILKEMYDADLLEEEVIISW [EIF5] : protein stability index is 2.19

====

# protocol_text: protein stability index of a GFP-peptide fusion (GPS, HEK-293T) (PSI 1-6); higher = more stable
# experimental_setup: treatment: MLN4924 1 uM, 8 h; c terminus: a fixed tail appended
Assign rule met whenever protein stability index does not fall below 3; assign rule not met whenever it does.

{"residue_string": "HFLSKMPEAEENKQIIRKHAQTFV [CCND1]", "cat": "rule met"}

// query Say whether LRGAKAFRLPGLSRREREPEPPAA [FCHO1] shows protein stability index of 3 or more.
// result rule met

// query Say whether TIHGLIYNALKLFMEMNQKLFDDC [PPP2R5C] shows protein stability index of 3 or more.
// result rule not met

====

# protocol_text: protein stability index of a GFP-peptide fusion (GPS, HEK-293T) (PSI 1-6); higher = more stable
# experimental_setup: treatment: MLN4924 1 uM, 8 h; c terminus: a fixed tail appended
Listing: protein stability index of selected sequences
Would you mind answering with just the numeric figure?

What the record says about VRSKYNDDIRKGIVLLEELLPKGS [FIS1] : protein stability index is 2.84

What the record says about YKSWLKNLAKEQLSRENIQSSLLE [PPEF2] : protein stability index is 2.86

What the record says about SLDKRQGEGLRIYWGSPEEQSLLS [TPRG1] : protein stability index is 2.85

What the record says about QEARERWNFDFVTETPLEGDFAWE [CDKN1A] : protein stability index is 4.29

What the record says about LRAELTKVEEEIVTLRQVLAAKER [TPD52L2] : protein stability index is 3.45

What the record says about VQAWPFTCLPLGVLMKGQHLHLET [PRAME] : protein stability index is 2.82

====

# protocol_text: protein stability index of a GFP-peptide fusion (GPS, HEK-293T) (PSI 1-6); higher = more stable
# experimental_setup: treatment: DMSO; c terminus: a fixed tail appended
property_measured: protein stability index
Would you mind answering with just the numeric figure?

{"residue_string": "EEHESGIEQFSESHAIHVEEQSDQ [IQUB]", "protein stability index": 5.61}
{"residue_string": "IKEIDEHAPGVPKILVGNRLHLAF [RAB40B]", "protein stability index": 1.93}
{"residue_string": "RCVRVFLEHGADPTVKDLIGGFTA [ASB7]", "protein stability index": 2.4}
{"residue_string": "GEDTRLSASEMKQLIDNILEESDI [CIB1]", "protein stability index": 5.27}
{"residue_string": "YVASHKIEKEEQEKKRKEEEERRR [ACBD3]", "protein stability index": 3.2}
{"residue_string": "DLFGWSQLIYNHITTRVNSEQEHF [ADD1]", "protein stability index": 2.72}

// moving on: another record for protein stability index
What the record says about PPWFEGLESRFQSKSGYLRYSCES [DFFB] : protein stability index is 2.51
